Tested on: E. coli MP-74 LptD mutant
experimental-protocol: MIC against E. coli MP-74 LptD mutant
Format: cell-based
condition-context: Escherichia coli
endpoint-label: MIC

# annotated cases, reported MIC shown
# molecule, assay-target, endpoint-label, value
measured = [
    ("CSC1O[C@H]([C@H](NC(=O)[C@H]2NC[C@@H]3C[C@@H](C4CCNCC4)CCO[C@H]32)[C@H](C)Cl)C(O)[C@@H](O)[C@H]1O (some centres unmarked) [FSA-512011]", "E. coli MP-74 LptD mutant", "MIC", "> 256 µg/mL"),
    ("CSC1O[C@H]([C@H](NC(=O)[C@H]2NC[C@@H]3CC(c4ccc(-c5ccccc5)cc4)=CCO[C@H]32)[C@H](C)Cl)C(O)[C@@H](O)[C@H]1O (some centres unmarked) [FSA-510001]", "E. coli MP-74 LptD mutant", "MIC", "8 µg/mL"),
    ("CSC1O[C@H]([C@H](NC(=O)[C@H]2NC[C@@H]3C[C@@H](c4ccc(F)cc4F)CCO[C@H]32)[C@H](C)Cl)C(O)[C@@H](O)[C@H]1O (some centres unmarked) [FSA-511078]", "E. coli MP-74 LptD mutant", "MIC", "8 µg/mL"),
    ("CSC1O[C@H]([C@H](NC(=O)[C@H]2NC[C@@H]3C[C@H](c4ccc(C#N)cc4)CCO[C@H]32)[C@H](C)Cl)C(O)[C@@H](O)[C@H]1O (some centres unmarked) [FSA-512081b]", "E. coli MP-74 LptD mutant", "MIC", "37 µg/mL"),
]

Now examine the next entry.
Reported MIC for CSC1O[C@H]([C@H](NC(=O)[C@H]2NC[C@@H]3CC(NC4CC4)CCO[C@H]32)[C@H](C)Cl)C(O)[C@@H](O)[C@H]1O (some centres unmarked) [FSA-510011] was > 64 µg/mL

----------
Tested on: E. coli ATCC 25922
experimental-protocol: MIC against E. coli ATCC 25922
Assay type: cell-based
condition-context: Escherichia coli, ATCC25922
endpoint-label: MIC

# annotated cases, reported MIC shown
# compound, assay-target, value
rows = [
    ("CSC1O[C@H]([C@H](NC(=O)[C@H]2NC[C@@H]3CC(NCc4ccc(F)cc4)CCO[C@H]32)[C@H](C)Cl)C(O)[C@@H](O)[C@H]1O (stereo partly shown)", "E. coli ATCC 25922", "> 64 µg/mL"),
    ("CSC1O[C@H]([C@H](NC(=O)[C@H]2NC[C@@H]3C[C@@H](O)[C@@H](O)CO[C@H]32)[C@H](C)Cl)C(O)[C@@H](O)[C@H]1O (stereo partly shown)", "E. coli ATCC 25922", "> 64 µg/mL"),
    ("CSC1O[C@H]([C@H](NC(=O)[C@H]2NC[C@@H]3CC(c4cccc5cnccc45)=CCO[C@H]32)[C@H](C)Cl)C(O)[C@@H](O)[C@H]1O (stereo partly shown)", "E. coli ATCC 25922", "> 64 µg/mL"),
]

Reported MIC for CSC1O[C@H]([C@H](NC(=O)[C@H]2NC[C@@H]3CC(NCc4ccccc4F)CCO[C@H]32)[C@H](C)Cl)C(O)[C@@H](O)[C@H]1O (stereo partly shown) was > 64 µg/mL

Reported MIC for CSC1O[C@H]([C@H](NC(=O)[C@H]2NC[C@@H]3CC(N)CCO[C@H]32)[C@H](C)Cl)C(O)[C@@H](O)[C@H]1O (stereo partly shown) was > 64 µg/mL

Reported MIC for C[C@@H](O)[C@@H](NC(=O)[C@H]1NC[C@@H]2CC=CCO[C@H]21)[C@H]1OC(CN=[N+]=[N-])[C@H](O)[C@H](O)C1O (stereo partly shown) was > 64 µg/mL

Reported MIC for CSC1O[C@H]([C@H](NC(=O)[C@H]2NC[C@@H]3CNCCO[C@H]32)[C@H](C)Cl)C(O)[C@@H](O)[C@H]1O (stereo partly shown) was > 64 µg/mL

Reported MIC for CSC1O[C@H]([C@H](NC(=O)[C@H]2NC[C@@H]3C=C(C#Cc4ccccc4)CCO[C@@H]23)[C@H](C)Cl)C(O)[C@@H](O)[C@H]1O (stereo partly shown) was > 64 µg/mL

Reported MIC for Cc1ccc(S(=O)(=O)OCC2O[C@H]([C@H](NC(=O)[C@H]3NC[C@@H]4CC=CCO[C@H]43)[C@@H](C)O)C(O)[C@@H](O)[C@H]2O)cc1 (stereo partly shown) was > 64 µg/mL

Reported MIC for CCCN1CCO[C@@H]2[C@H](CN[C@@H]2C(=O)N[C@H]([C@H](C)Cl)[C@H]2OC(SC)[C@H](O)[C@H](O)C2O)C1 (stereo partly shown) was > 64 µg/mL

Reported MIC for CCNC(=O)N1CCO[C@@H]2[C@H](CN[C@@H]2C(=O)N[C@H]([C@H](C)Cl)[C@H]2OC(SC)[C@H](O)[C@H](O)C2O)C1 (stereo partly shown) was > 64 µg/mL

Reported MIC for CSC1O[C@H]([C@H](NC(=O)[C@H]2NC[C@@H]3C[C@@H](C4CCN(C)CC4)CCO[C@H]32)[C@H](C)Cl)C(O)[C@@H](O)[C@H]1O (stereo partly shown) was > 256 µg/mL

Reported MIC for CSC1O[C@H]([C@H](NC(=O)[C@H]2NC[C@@H]3CN(Cc4ccnc(N)c4)CCO[C@H]32)[C@H](C)Cl)C(O)[C@@H](O)[C@H]1O (stereo partly shown) was > 64 µg/mL

Reported MIC for CSC1O[C@H]([C@H](NC(=O)[C@H]2NC[C@@H]3CC(c4ccccc4)=CCO[C@H]32)[C@H](C)Cl)C(O)[C@@H](O)[C@H]1O (stereo partly shown) was > 32 µg/mL

Reported MIC for CSC1O[C@H]([C@H](NC(=O)[C@H]2NC[C@@H]3CCCCO[C@@H]32)[C@H](C)Cl)C(O)[C@@H](O)[C@H]1O (stereo partly shown) was > 64 µg/mL

Reported MIC for CSC1O[C@H]([C@H](NC(=O)[C@H]2NC[C@@H]3C=C(c4ccccc4)CCO[C@@H]23)[C@H](C)Cl)C(O)[C@@H](O)[C@H]1O (stereo partly shown) was > 32 µg/mL

Reported MIC for CSC1O[C@H]([C@H](NC(=O)[C@H]2NC[C@@H]3CN(C)CCO[C@H]32)[C@H](C)Cl)C(O)[C@@H](O)[C@H]1O (stereo partly shown) was > 64 µg/mL

Reported MIC for C=CC1=CCO[C@@H]2[C@H](CN[C@@H]2C(=O)N[C@H]([C@H](C)Cl)[C@H]2OC(SC)[C@H](O)[C@H](O)C2O)C1 (stereo partly shown) was > 32 µg/mL

Reported MIC for CSC1O[C@H]([C@H](NC(=O)[C@H]2NC[C@@H]3CC(c4ccc(-c5ccccc5)cc4)=CCO[C@H]32)[C@H](C)Cl)C(O)[C@@H](O)[C@H]1O (stereo partly shown) was > 64 µg/mL

----------
Reported MIC values for a set of compounds
System: C. difficile BAA 1805
experimental-protocol: MIC against C. difficile BAA 1805
Format: cell-based
condition-context: Clostridioides difficile, BAA1805; C. difficile BAA 1805; read-out: MIC
Kindly answer with a numeric value in µg/mL, unit omitted.

# annotated cases, reported MIC shown
# compound, endpoint-label, unit-name, value
rows = [
    ("CSC1O[C@H]([C@H](NC(=O)[C@H]2NC[C@@H]3C=C(c4ccc(C(F)(F)F)cc4)CCO[C@@H]23)[C@H](C)Cl)C(O)[C@@H](O)[C@H]1O (stereo partly drawn)", "MIC", "µg/mL", 8),
    ("CSC1O[C@H]([C@H](NC(=O)[C@H]2NC[C@@H]3C[C@H]4C[C@H]4CO[C@H]32)[C@H](C)Cl)C(O)[C@@H](O)[C@H]1O (stereo in doubt)", "MIC", "µg/mL", 4),
    ("CSC1O[C@H]([C@H](NC(=O)[C@H]2NC[C@@H]3CC=CCO[C@H]32)[C@H](C)Cl)C(O)[C@@H](O)[C@H]1O (stereo partly drawn)", "MIC", "µg/mL", 2),
    ("C=CC1=CCO[C@@H]2[C@H](CN[C@@H]2C(=O)N[C@H]([C@H](C)Cl)[C@H]2OC(SC)[C@H](O)[C@H](O)C2O)C1 (stereo partly drawn)", "MIC", "µg/mL", 0.5),
    ("CSC1O[C@H]([C@H](NC(=O)[C@H]2NC[C@@H]3CC(F)(F)CCO[C@H]32)[C@H](C)Cl)C(O)[C@@H](O)[C@H]1O (stereo partly drawn)", "MIC", "µg/mL", 2),
]

Reported MIC for CSC1O[C@H]([C@H](NC(=O)[C@H]2NC[C@@H]3CC=CCO[C@H]32)[C@H](C)Sc2ccc(-c3cncnc3)cc2)C(O)[C@@H](O)[C@H]1O (stereo partly drawn) was 1

Ref: patent US20220073554A1
